System: HL-1
Test details: relative cell viability (CellTiter-Glo) vs DMSO control (% of DMSO control); higher = more viable cells
Settings: oxygen condition: normoxia 72 h; 40 nM
Counter-ions that a name gives are not always drawn.
Assay readout: relative cell viability
# print the numeric value only

Q: Please provide the recorded relative cell viability for O=NO [Sodium nitrite] , tested on HL-1.
Result: 109

Q: Please provide the recorded relative cell viability for C[C@@H](NCCCc1cccc(C(F)(F)F)c1)c1cccc2ccccc12 , tested on HL-1.
Result: 95.2

Q: Please provide the recorded relative cell viability for CC(=O)[C@H]1CC[C@H]2[C@@H]3C=CC4=CC(=O)CC[C@@]4(C)[C@@H]3CC[C@]12C , tested on HL-1.
Result: 100

Q: Please provide the recorded relative cell viability for CC1(C)O[C@@H]2[C@@H](CO[C@@]3(COS(N)(=O)=O)OC(C)(C)O[C@@H]23)O1 [Topiramate] , tested on HL-1.
Result: 104

Q: Please provide the recorded relative cell viability for COc1ccc(Cl)cc1C(=O)NCCc1ccc(S(=O)(=O)NC(=O)NC2CCCCC2)cc1 [Glyburide] , tested on HL-1.
Result: 103

Q: Please provide the recorded relative cell viability for CC1COc2c(N3CCN(C)CC3)c(F)cc3c(=O)c(C(=O)O)cn1c23 (centres undefined) , tested on HL-1.
Result: 98.5

Q: Please provide the recorded relative cell viability for CNCCC(Oc1ccc(C(F)(F)F)cc1)c1ccccc1 (centres undefined) [Fluoxetine HCl] , tested on HL-1.
Result: 104

Q: Please provide the recorded relative cell viability for CN1CCN(C2=Nc3cc(Cl)ccc3Nc3ccccc32)CC1 , tested on HL-1.
Result: 96

Q: Please provide the recorded relative cell viability for COCCCC/C(=N\OCCN)c1ccc(C(F)(F)F)cc1 [Fluvoxamine maleate] , tested on HL-1.
Result: 109

----------
System: HL-1
Test details: relative cell viability (CellTiter-Glo) vs DMSO control (% of DMSO control); higher = more viable cells
Settings: oxygen condition: normoxia 72 h; 5000 nM
Structures can show the parent of a compound that is named as a salt.
Assay readout: relative cell viability
# print the numeric value only

Q: Please provide the recorded relative cell viability for CC(=O)O[C@@]12CO[C@@H]1C[C@H](O)[C@@]1(C)C(=O)[C@H](O)C3=C(C)[C@@H](OC(=O)[C@H](O)[C@@H](NC(=O)OC(C)(C)C)c4ccccc4)C[C@@](O)([C@@H](OC(=O)c4ccccc4)[C@H]21)C3(C)C [Docetaxel] , tested on HL-1.
Result: 23.6

Q: Please provide the recorded relative cell viability for Nc1ncn([C@H]2C[C@H](O)[C@@H](CO)O2)c(=O)n1 [Decitabine] , tested on HL-1.
Result: 58.2

Q: Please provide the recorded relative cell viability for COc1cc2c(cc1O)CC[C@@H]1[C@@H]2CC[C@]2(C)[C@@H](O)CC[C@@H]12 [2-Methoxyestradiol] , tested on HL-1.
Result: 109

Q: Please provide the recorded relative cell viability for Oc1cc(O)c(Cl)cn1 [Gimeracil] , tested on HL-1.
Result: 105

Q: Please provide the recorded relative cell viability for Cc1nccn1CC1CCc2c(c3ccccc3n2C)C1=O (stereo not given) [Ondansetron] , tested on HL-1.
Result: 107

Q: Please provide the recorded relative cell viability for NS(=O)(=O)c1cc2c(cc1Cl)N=C(CSCc1ccccc1)NS2(=O)=O [Benzthiazide] , tested on HL-1.
Result: 105

Q: Please provide the recorded relative cell viability for CCCC(=O)[O-].[Na+] [Sodium butyrate] , tested on HL-1.
Result: 107

Q: Please provide the recorded relative cell viability for C[C@@]12C[C@@]3(O)O[C@@H](O1)[C@]1(COC(=O)c4ccccc4)[C@H]3C[C@@]12O[C@@H]1O[C@H](CO)[C@@H](O)[C@H](O)[C@H]1O [Paeoniflorin] , tested on HL-1.
Result: 118

Q: Please provide the recorded relative cell viability for CC(CN(C)C)CN1c2ccccc2CCc2ccccc21 (stereo not given) [Trimipramine Maleate] , tested on HL-1.
Result: 94.2

Q: Please provide the recorded relative cell viability for Nc1cccc2c1C(=O)N(C1CCC(=O)NC1=O)C2=O (stereo not given) [Pomalidomide] , tested on HL-1.
Result: 113

Q: Please provide the recorded relative cell viability for CCCCc1oc2ccccc2c1C(=O)c1cc(I)c(OCCN(CC)CC)c(I)c1 [Amiodarone HCl] , tested on HL-1.
Result: 116

Q: Please provide the recorded relative cell viability for C=CC[C@@H]1/C=C(\C)C[C@H](C)C[C@H](OC)[C@H]2O[C@@](O)(C(=O)C(=O)N3CCCC[C@H]3C(=O)O[C@H](/C(C)=C/[C@@H]3CC[C@@H](O)[C@H](OC)C3)[C@H](C)[C@@H](O)CC1=O)[C@H](C)C[C@@H]2OC , tested on HL-1.
Result: 105

Q: Please provide the recorded relative cell viability for CCCC(=O)Nc1ccc(OCC(O)CNC(C)C)c(C(C)=O)c1 (stereo not given) [Acebutolol HCl] , tested on HL-1.
Result: 116

Q: Please provide the recorded relative cell viability for O=C1Cc2cc(CCN3CCN(c4nsc5ccccc45)CC3)c(Cl)cc2N1 [Ziprasidone hydrochloride] , tested on HL-1.
Result: 98.4

Q: Please provide the recorded relative cell viability for CCN(CC)CCNC(C(=O)OCCC(C)C)c1ccccc1 (stereo not given) [Camylofin Chlorhydrate] , tested on HL-1.
Result: 110
